Where do these numbers come from? They come from the supplement of paper PMC12338614.

Attribute: STK11 functional score
B1: library; numbered along this chain (parent)
chain: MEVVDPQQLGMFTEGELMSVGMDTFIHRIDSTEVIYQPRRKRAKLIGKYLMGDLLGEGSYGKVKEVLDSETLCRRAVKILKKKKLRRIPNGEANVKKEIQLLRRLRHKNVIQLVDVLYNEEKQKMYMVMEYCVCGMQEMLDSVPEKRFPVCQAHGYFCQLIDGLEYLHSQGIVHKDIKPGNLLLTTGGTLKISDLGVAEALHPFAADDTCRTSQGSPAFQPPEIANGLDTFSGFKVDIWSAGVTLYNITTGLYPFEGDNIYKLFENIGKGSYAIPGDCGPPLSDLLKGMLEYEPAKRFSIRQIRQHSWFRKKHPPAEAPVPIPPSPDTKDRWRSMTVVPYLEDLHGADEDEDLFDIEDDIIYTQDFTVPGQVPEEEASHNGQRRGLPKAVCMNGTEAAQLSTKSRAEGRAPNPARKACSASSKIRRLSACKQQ

# Variants of: B1
# protocol-notes: STK11 functional score (HeLa growth suppression), rescaled enrichment; synonymous median = 1, nonsense median = 0 (normalised score)
# experimental-parameters: with HeLa; variant type: missense
Note: the reply should be a number with no unit written.

The following variants have reported results that may help.
>>> number("A273F")
0.993
>>> number("H345D")
1.27
>>> number("Y253D")
0.768
>>> number("N226C")
1.29
>>> number("S271R")
1.04
>>> number("V128W")
0.804
>>> number("L164F")
-0.208
>>> number("K62I")
1.35
>>> number("Y261W")
0.609
>>> number("H107E")
0.776

Switching to the query record.
Input `K403L` . Output STK11 functional score: 1.25
